# target of assay: GABARAPL2, P60520
# Sequence (P60520 whole entry, the tested form may be a part): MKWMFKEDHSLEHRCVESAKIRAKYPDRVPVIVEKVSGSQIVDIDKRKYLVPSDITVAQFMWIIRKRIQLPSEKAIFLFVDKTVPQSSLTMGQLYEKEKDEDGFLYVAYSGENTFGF
# protocol description: median log2 fold change of GCK-ALFA target abundance (FLAG IP / Myc IP barcode read proportion) (log2 ratio); each designed protein is fused to an ALFA-tag nanobody in HEK293 cells to bring the named protein to FLAG-tagged glucokinase (GCK); Myc marks an untargeted standard; higher = target protein stabilised (more abundant)
# run parameters: target protein: 3xFLAG-MCP-GCK-ALFA reporter; HEK293 landing pad (RPLP)
Binning scheme for median log2 fold change: lower segment = under -0.2, middle segment = from -0.2 up to 0.02, upper segment = 0.02 and over

Solved cases (3 shown):
GBRAPL2_128_7276 (protein) KKIVSIDVDLKDEESYELALKILEEIAEKSSPKVKELAEAAKDLAEAAKEEGFGETVTAVDILSDEEVEELKKIYAEIKKKYGEEKVNSVVKIEIDELKP    lower segment
GBRAPL2_54_7369 (protein) MKIVEVTFVAEREFFLANRERIRAAALATYAELRKRLPDKVGELLSEEYSETPDYGSLSLDIEVDESALDEVIDAFEATRDALSAELGHPVHVVIGIGDK    lower segment
GBRAPL2_0_7251 (protein) MEELLEELLSLSLEEAKKKIKELAEKVIKLIKEDPEKGLEEAEKLAKVFAEYLIETKNEELEKVIDEAIDKIVKEVAKIDPNKAAYIDAIIGSAIMEVES    middle segment

In: Lab note: which band did GBRAPL2_151_7311 (protein) DLKEKAVKALEEAAKALEELAEKLSEEQELEKTEIELLAGGMDAYAILVEETEDEEEIKRIVKDAAELVEDAAKIAKELGLEEDAKKLKEIAKKLKELAK land in?
Out: middle segment

In: GET /class?item= GBRAPL2_54_7385 (protein) MTKVLVEIDFLVEGDEEELAEVEKVLLEEIEKMKKELKEKYGAEVTVEVEREDGRLLVTVTVLTPKEAVDDVIDLAEKMRDEVEAKTGVKVHVVIGIEEL
Out: upper segment

In: Assign a category based on measured median log2 fold change for GBRAPL2_53_7349 (protein) MYEVEIAHPDKEVLAAAIEAIFDKIEEAGVEAEVEVTLEDGTVIKLEGPIEEQKEEAVALAKETDVLVTIKLPDEAEELVEELEDIALEKGATVSVEKLE and give only the class name.
Out: upper segment

In: State the band of GBRAPL2_128_7282 (protein) MKLVTIDVTVENEEEYNLAVEVFDEIIEEGSEKVADLADAAKDMLESSKENGYKENVSVADILSDEDAEELRELFEELAKKYGEEKVKKIIELTIDDLPP
Out: lower segment

In: Which category fits this record: GBRAPL2_128_7290 (protein) MKLVTIDVTIKNEEEYNLAVKVLKELAEKGSPKVADLADAARDMVEEAKKEGYNENVSVADILSEEDAEELKKLYEELAKKYGEEKVKSIIKLTIDDIPP
Out: middle segment
